I'd appreciate it if you could supply PBM binding z-score values for the items below.
- Test system: LXRa:RXRa (NR concentration 270 nM, RXRa partner concentration 90 nM)
- protocol.description: PBM binding z-score (relative to random genomic background probes); higher = stronger binding; sequences stand for … in GC…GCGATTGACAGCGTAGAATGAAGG

// recorded PBM binding z-score for CCGACTGGGGCAAAGGTTACCAAACTCAGTACGA : 1.78

The sequence listed as CCGACTGGCGCAAAGGTTACCATACTCAGTACGA shows PBM binding z-score equal to 1.29

The value of PBM binding z-score measured for the sequence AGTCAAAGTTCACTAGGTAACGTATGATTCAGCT turned out to be 4.91

Memo: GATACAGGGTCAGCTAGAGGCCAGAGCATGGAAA , reported PBM binding z-score: 2.87

# PBM binding z-score (sequence: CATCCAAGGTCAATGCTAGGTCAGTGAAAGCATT ) is 5.98

response.value for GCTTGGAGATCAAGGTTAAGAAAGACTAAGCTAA (field: PBM binding z-score) = 0.942

Sure, the documented PBM binding z-score for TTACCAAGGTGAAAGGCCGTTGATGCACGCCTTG is 0.431

Entry under test: TCATATAGGTAAACAGGTGAAACTCCGTAAGTTA . Its PBM binding z-score was 1.06

Entry TTACCAAGGTGAGCTGAGGTCGTCGATCCAACTC ; PBM binding z-score = 0.879

What the record says about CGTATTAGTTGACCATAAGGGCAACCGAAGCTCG : PBM binding z-score is 0.437

get_value(item= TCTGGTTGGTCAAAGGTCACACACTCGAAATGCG , readout=PBM binding z-score) returns 5.91

Just so you know, measured PBM binding z-score for TCTAGTTGCTCAAAGGTCACACACTCGAAATGCG came out at 5.26

PBM binding z-score in this record for AGTATTAGTTGAGACGAGGGCAACCGATAGGTTG : 0.556

So for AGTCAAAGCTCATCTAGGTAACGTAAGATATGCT , the logged PBM binding z-score turned out to be -0.578

Kindly note the recorded PBM binding z-score for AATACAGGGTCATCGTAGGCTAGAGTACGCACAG , which is 6.2

Lab note: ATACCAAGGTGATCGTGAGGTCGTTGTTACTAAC gave PBM binding z-score of 1.11

Measured PBM binding z-score, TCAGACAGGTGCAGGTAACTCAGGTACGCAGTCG : 0.617

Just so you know, measured PBM binding z-score for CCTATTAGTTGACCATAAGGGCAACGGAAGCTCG came out at 0.337

What the record says about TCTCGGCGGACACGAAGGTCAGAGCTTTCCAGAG : PBM binding z-score is 0.668

Entry under test: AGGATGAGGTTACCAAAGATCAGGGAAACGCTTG . Its PBM binding z-score was 6.04

Field PBM binding z-score (entry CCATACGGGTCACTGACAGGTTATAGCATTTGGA ) reads 4.04

Lab note: measured PBM binding z-score of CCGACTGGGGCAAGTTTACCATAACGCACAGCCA was 0.0135

Documented PBM binding z-score of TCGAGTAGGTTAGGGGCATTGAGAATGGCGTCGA : 0.155

Consider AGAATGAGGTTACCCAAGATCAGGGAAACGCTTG . Its measured PBM binding z-score is 5.76

# PBM binding z-score (sequence: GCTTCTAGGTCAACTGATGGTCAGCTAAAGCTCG ) is 3.12

For reference, reported PBM binding z-score for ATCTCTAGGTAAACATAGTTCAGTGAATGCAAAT stands at 4.22
